# maps each entry to its log10 Activity
Tested on: SF-268
Test: Cytotoxicity against human SF268 cells assessed as concentration required for 50% inhibition
Format: functional
Residues, ends and D or L forms follow the SMILES beside them.
Log10 applied to Activity; unit prior to transform: µg/mL.

Below: 4 compounds and their reported log10 Activity.
O=c1c(-c2ccc(O)cc2)coc2cc(O)cc(O)c12 [GENISTEIN] ... 0.23
CC[C@H](C)[C@@H]1NC(=O)[C@H](CC(C)C)NC(=O)[C@@H]2CCCN2C(=O)[C@H](C(C)C)NC(=O)[C@H](Cc2ccc(O)cc2)NC(=O)[C@@H]2CCCN2C(=O)[C@@H]2CCCN2C(=O)[C@H](CC(C)C)NC1=O [AXINASTATIN 5] (cyclo(ILPPYVPL)) ... 0.26
O=c1c(-c2ccc(O)cc2)coc2cc(O)ccc12 [DAIDZEIN] ... 0.64
Cl.O[C@]12C=C(c3nccc4c3[nH]c3ccccc34)[C@@H]3CCN(CCCC/C=C\CC1)C[C@@]31C[C@@H]3/C=C\CCCCN3[C@H]12 [MANZAMINE A HCL] ... -0.38

As a next step, examine the compound that follows.
Prompt: // Input: C[C@H]1CCC/C=C/[C@@H]2C[C@H](O)C[C@H]2[C@H](O)/C=C/C(=O)O1 [BREFELDIN A] . Output its log10 Activity only.
Completion: -0.68

###

Tested on: SF-295
Test: Cytotoxicity against human SF295 cells assessed as concentration required for 50% inhibition
Format: functional
# maps each entry to its Activity
Express the result in µg/mL but write the number alone.

Below: 3 compounds and their reported Activity.
CCCCCCCCCCCCCC(=O)O[C@H]1CC[C@H](NC(=O)[C@H](OC)[C@H](O)[C@@H](O)[C@H](O)/C=C/C(C)C)C(=O)NC1 [BENGAMIDE A] ... 0.001
CC(C)CCCCCCCCCCCC(=O)O[C@@H](c1cnco1)c1nc([C@@H](O)C[C@@H](O)[C@@H](O)[C@@H](C)O)co1 ... 0.19
CCCCCCCCCCCCCCC(=O)O[C@@H](c1cnco1)c1nc([C@@H](O)C[C@@H](O)[C@@H](O)[C@@H](C)O)co1 ... 0.13

As a next step, examine the compound that follows.
Prompt: // Input: `COc1cc([C@@H]2c3cc4c(c(O[C@@H]5O[C@H](CO)[C@@H](O)[C@H](O)[C@H]5O)c3C[C@H]3COC(=O)[C@@H]32)OCO4)cc(OC)c1OC` . Output its Activity only.
Completion: 0.27

###

Test system: SF-295
Test: Cytotoxicity against human SF295 cells assessed as concentration required for 50% inhibition
Type: functional
Starred links: 1 amine or outer side, 2 acyl side, 3 side chain; linkers in the order of their positions; H or OH if unused. Non-standard residues stand in square brackets, D forms with d. Residues, ends and D or L forms follow the SMILES beside them. X1 = CCC(N[*:1])C(C)C(=O)O[C@H](C(=O)[*:2])[C@@H](C)CC; X2 = C[C@H](N[*:1])C(=O)C(C)(C)C(=O)[*:2]; NMeY = CN[C@@H](Cc1ccc(O)cc1)C(=O)O; NMeI = CC[C@H](C)[C@H](NC)C(=O)O; NMeV = CN[C@H](C(=O)O)C(C)C
Quick rule for you: Activity at 0.2 µg/mL or higher means Met, lower means Not met.

COc1cc([C@@H]2c3cc4c(cc3C[C@H]3COC(=O)[C@@H]32)OCO4)cc(OC)c1OC [DESOXYPODOPHYLLOTOXIN] ... Not met
COc1cc([C@@H]2c3cc4c(c(O)c3C[C@H]3COC(=O)[C@@H]32)OCO4)cc(OC)c1OC [BETA-PELTATIN A] ... Not met
CC[C@H]1CN2CCc3cc(OC)c(OC)cc3[C@@H]2C[C@@H]1C[C@H]1NCCc2cc(O)c(OC)cc21 [CEPHAELINE] ... Not met

Prompt: Is the recorded value of Activity equal to or greater than 0.2 µg/mL for this compound? CCC1NC(=O)[C@H](C)NC(=O)C(C)(C)C(=O)[C@H](C)NC(=O)[C@H](Cc2ccc(OC)cc2)N(C)C(=O)[C@H](C(C)C)N(C)C(=O)CNC(=O)[C@H]([C@@H](C)CC)N(C)C(=O)CNC(=O)[C@H]([C@@H](C)CC)OC(=O)C1C (stereo partly specified) [MAJUSCULAMIDE C] (cyclo(A[X1]G[NMeI]G[NMeV][NMeY](Me)[X2]))
Completion: Not met

Prompt: Is the recorded value of Activity equal to or greater than 0.2 µg/mL for this compound? CCCCCCCCCCCCCC(=O)O[C@@H](c1cnco1)c1nc([C@@H](O)C[C@@H](O)[C@@H](O)[C@@H](C)O)co1 [BENGAZOLE A]
Completion: Not met

Prompt: Is the recorded value of Activity equal to or greater than 0.2 µg/mL for this compound? C[C@H]1CCC/C=C/[C@@H]2C[C@H](O)C[C@H]2[C@H](O)/C=C/C(=O)O1 [BREFELDIN A]
Completion: Met
